Cited source: the supplement of paper PMC3545927

# system.tested: furin, P09958;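 note: purified furin at 1:10 enzyme:substrate in 50 mM HEPES pH 7.5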
# Sequence (P09958 whole entry): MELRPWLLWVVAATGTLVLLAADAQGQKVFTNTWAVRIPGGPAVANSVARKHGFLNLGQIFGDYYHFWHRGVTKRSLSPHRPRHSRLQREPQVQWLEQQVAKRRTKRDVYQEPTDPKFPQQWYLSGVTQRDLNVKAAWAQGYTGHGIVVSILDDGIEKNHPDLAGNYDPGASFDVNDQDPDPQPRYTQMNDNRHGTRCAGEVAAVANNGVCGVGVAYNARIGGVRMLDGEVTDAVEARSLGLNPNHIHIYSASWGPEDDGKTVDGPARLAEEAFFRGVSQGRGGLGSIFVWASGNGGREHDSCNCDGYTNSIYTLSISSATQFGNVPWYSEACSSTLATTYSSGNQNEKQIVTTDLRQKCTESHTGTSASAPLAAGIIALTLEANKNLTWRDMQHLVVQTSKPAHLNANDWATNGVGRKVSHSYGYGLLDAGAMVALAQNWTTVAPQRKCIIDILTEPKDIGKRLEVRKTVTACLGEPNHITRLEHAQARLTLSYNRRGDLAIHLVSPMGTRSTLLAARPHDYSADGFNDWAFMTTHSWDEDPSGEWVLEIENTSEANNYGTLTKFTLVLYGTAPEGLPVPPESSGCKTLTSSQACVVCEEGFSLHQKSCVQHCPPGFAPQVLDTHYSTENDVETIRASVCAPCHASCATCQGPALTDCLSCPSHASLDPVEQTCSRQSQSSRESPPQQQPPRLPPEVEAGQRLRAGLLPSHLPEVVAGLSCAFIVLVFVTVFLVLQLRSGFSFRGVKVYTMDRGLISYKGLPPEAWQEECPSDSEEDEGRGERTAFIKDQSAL
# protocol.summary: furin cleavage Z-score vs untreated control; higher = more cleavage, active = 3.5 or more, inactive = 1 or less, 8 variable residues between constant flanks
# experimental.parameters: 15 min
The other results are listed elsewhere or left out. No count for the full screen is at hand.
Assign 1.0 to entries whose furin cleavage Z-score meets or exceeds 0.6; assign 0.0 to the rest.

CAKERREKRAAGNASASA [FS-601]; 1.0

Query block: Tell me whether furin cleavage Z-score is at least 0.6 here: CAEWLRKKRIAGNASASA [FS-418]
Result block: 1.0

Query block: Tell me whether furin cleavage Z-score is at least 0.6 here: CAHYPCTINYAGNASASA [HC469]
Result block: 0.0

Query block: Tell me whether furin cleavage Z-score is at least 0.6 here: CAEVVMSTWVAGNASASA [HC128]
Result block: 0.0

Query block: Tell me whether furin cleavage Z-score is at least 0.6 here: CARPQPQRRAAGNASASA [FS-86]
Result block: 1.0

Query block: Tell me whether furin cleavage Z-score is at least 0.6 here: CAQKRREKKAAGNASASA [FS-79]
Result block: 1.0

Query block: Tell me whether furin cleavage Z-score is at least 0.6 here: CAKKRRKKRIAGNASASA [FS-936]
Result block: 1.0

Query block: Tell me whether furin cleavage Z-score is at least 0.6 here: CAGSQLPCEPAGNASASA [HC1239]
Result block: 0.0
